Data provenance: PubChem BioAssay AID493131

Would you mind telling me the reported activation of each entry?
Target under test: Protein FosB (Mus musculus)
Protocol: activators of delta FosB homodimer, primary screen, biochemical, fluorescence polarization, TAMRA-CDK5 oligo, single point (AID 493131);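 note: fluorescence polarization rise as delta FosB binds a TAMRA Cdk5 AP-1 oligo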
Details: purified delta FosB, at 25 µM, active compounds read high, percent of positive-control signal above neutral wells
The campaign covered roughly 340,000 compounds. About 3,300 (0.97%) were called active. Many of the other results were omitted from the sample, so actives are more common in it than they were.
Answers are plain numbers, in %.

COc1ccc(C(=O)Nc2cc(C)c(NC(=O)c3ccccc3OC)cn2)cc1 :: -13.9

Go through the items and report each one's activation.
1. COc1cccc(C2CC(c3cccs3)=NN2C(=O)CSC2=NCCS2)c1OC (stereo not given)
2. COc1ccc(C(=O)Nc2ccccc2C(=O)N/N=C/c2ccccc2OC)cc1
3. COc1cc(C(C)=O)ccc1OC(C)C(=O)Nc1ccc(S(=O)(=O)N2CCCC2)cc1 (stereo not given)
4. CCCOc1ccc(C(=O)CCC(=O)OC(C)C(=O)Nc2ccc(NC(C)=O)cc2)cc1 (stereo not given)

[-11.4, 38, -5.8, 11.5]

* * *

Target under test: Protein FosB (Mus musculus)
Protocol: activators of delta FosB homodimer, primary screen, biochemical, fluorescence polarization, TAMRA-CDK5 oligo, single point (AID 493131);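 note: fluorescence polarization rise as delta FosB binds a TAMRA Cdk5 AP-1 oligo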
Details: purified delta FosB, at 25 µM, active compounds read high, percent of positive-control signal above neutral wells
Out of some 340,000 compounds screened, about 3,300 (0.97%) were called active. The full list was thinned out, with actives kept by preference.
For each of the molecules below, state its activation.
Numbers only, in %.

COc1cc2[nH]c(=O)n(CCC(=O)NC3CCN(Cc4ccccc4)CC3)c(=O)c2cc1OC :: -7.1

Below are 5 molecules. Give each one its activation.
1. CN1CCN(c2nc(Nc3ccc(O)cc3)nc3ccccc23)CC1
2. Cc1cccc(Nc2nc(NCCO)nc(N3CCCC3)n2)c1
3. O=C(Nc1ccccc1C(F)(F)F)c1cc(-c2ccc(O)cc2)on1
4. OCCNc1nc(Nc2ccc(Cl)c(Cl)c2)nc2ccccc12
5. CSc1nc2c(c(=O)[nH]1)C(c1cccc(Cl)c1Cl)CC(=O)N2 (stereo unspecified)

1. 10.9
2. 2.75
3. 0.0145
4. 47
5. -2.19

* * *

Target under test: Protein FosB (Mus musculus) (UniProt P13346)
Sequence (P13346 whole entry, looked up): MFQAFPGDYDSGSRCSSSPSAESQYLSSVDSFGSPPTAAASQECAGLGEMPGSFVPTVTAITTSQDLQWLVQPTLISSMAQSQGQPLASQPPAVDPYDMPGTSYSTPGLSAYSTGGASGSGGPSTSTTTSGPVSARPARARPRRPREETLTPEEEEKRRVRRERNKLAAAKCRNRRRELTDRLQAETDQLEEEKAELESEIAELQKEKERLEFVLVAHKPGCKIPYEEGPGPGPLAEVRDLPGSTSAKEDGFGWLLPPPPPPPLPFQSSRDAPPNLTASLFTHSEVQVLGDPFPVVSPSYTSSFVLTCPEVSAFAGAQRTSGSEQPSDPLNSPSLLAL
Protocol: activators of delta FosB homodimer, primary screen, biochemical, fluorescence polarization, TAMRA-CDK5 oligo, single point (AID 493131);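 note: fluorescence polarization rise as delta FosB binds a TAMRA Cdk5 AP-1 oligo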
Details: purified delta FosB, at 25 µM, active compounds read high, percent of positive-control signal above neutral wells
In all, about 340,000 compounds went through this assay and about 3,300 (0.97%) were called active. This excerpt belongs to a sample that is enriched for actives.
I would appreciate it if you labelled entries true when activation is -10% or higher, otherwise false.

Completed entries (count: 4):
COC(=O)c1ccc(C2C(Oc3ccccc3C)C(=O)N2CCc2ccc(OC)c(OC)c2)cc1 (stereo not given) :: false
Nc1nonc1-n1nnc(C(=O)N/N=C/c2ccc(Cl)cc2)c1-c1ccc2c(c1)OCO2 :: true
O=S(=O)(NCC1CN(S(=O)(=O)c2ccc3c(c2)OCCO3)C1)c1c(F)cccc1F :: true
Nc1nonc1-n1nnc(C(=O)N/N=C/C2CCCCC2)c1-c1ccccc1 :: false

Okay, now this compound:
Evaluate CC1(C)CC2CC(C)(CN2c2ncnc3ccc(Br)cc23)C1 (stereo not given) : activation at minimum -10%?
false

* * *

Target under test: Protein FosB (Mus musculus) (UniProt P13346)
Protocol: activators of delta FosB homodimer, primary screen, biochemical, fluorescence polarization, TAMRA-CDK5 oligo, single point (AID 493131);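 note: fluorescence polarization rise as delta FosB binds a TAMRA Cdk5 AP-1 oligo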
Details: purified delta FosB, at 25 µM, percent of positive-control signal above neutral wells
Among all 340,000 compounds or so, about 3,300 (0.97%) were called active.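 How the source made its calls: active means mean activation above about 17%, with every replicate also reaching it (limit read from the data, passing the limit was not always enough); inconclusive means only one of the two conditions met; inactive means the rest.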 The sample holds actives, similar compounds and a random draw of the others, so the mix is not that of the screen.
Outcome field: choose from true (1) (active), false (0) (inactive)

Example cases with answers are listed next.
Cc1ccc(OCc2cc(C(=O)N(C)CCn3ccnc3C)no2)cc1C :: false (0)
COC(=O)c1ccc(NC(=O)CSc2nc(N)c(NC(=O)c3ccc(Br)o3)c(=O)[nH]2)cc1 :: false (0)
Cc1cc(C)cc(NC(=O)C(OC(=O)c2ccc(O)cc2)c2ccccc2)c1 (stereo unspecified) :: false (0)
O=C(Nc1cc(-c2nc3ncccc3o2)ccc1Cl)c1ccco1 :: false (0)
Nc1nc(SCC(=O)Nc2cc(C(F)(F)F)ccc2Cl)[nH]c(=O)c1NC(=O)c1ccco1 :: true (1)

Please state the recorded outcome for this compound: "CCc1ccc(C(=O)OCC(=O)NCC(F)(F)F)cc1"
false (0)

Which outcome was entered for the compound "Cc1ccc(OCC(=O)Nc2ccccc2C(=O)NC2CC2)cc1C" in this test?
true (1)

Recorded call for "CC(=O)N1CC(=O)N(CC(=O)Nc2ccc(Br)cc2)C1=S" ?
false (0)

Can you look up the reported call for "COc1ccccc1CC(=O)Nc1ccc(S(=O)(=O)N2CCCC2)cc1" for me?
false (0)

# fetch the recorded call for "Cc1cc(C)c2nc3nc(C)cc(C)c3c(N)c2c1" here
true (1)

Test call, this compound: "O=S(=O)(Nc1ccc(OC(F)(F)F)cc1)c1cccc2nonc12"
false (0)

* * *

Target under test: Protein FosB (Mus musculus)
Protocol: activators of delta FosB homodimer, primary screen, biochemical, fluorescence polarization, TAMRA-CDK5 oligo, single point (AID 493131);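 note: fluorescence polarization rise as delta FosB binds a TAMRA Cdk5 AP-1 oligo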
Details: purified delta FosB, at 25 µM, percent of positive-control signal above neutral wells
Among all 340,000 compounds or so, about 3,300 (0.97%) were called active.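 Rule for the calls: active = mean activation above about 17%, with every replicate also reaching it (limit read from the data, passing the limit was not always enough); inconclusive = only one of the two conditions met; inactive = the rest.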 Many of the other results were omitted from the sample, so actives are more common in it than they were.
Hello, when you answer, please use one of the following outcomes: active, inactive

Record excerpt, results attached:
CS(=O)(=O)N(CC(=O)NCc1ccco1)c1ccc2c(c1)OCO2 :: inactive
S=C(NCc1ccc2c(c1)OCO2)NCc1ccco1 :: inactive
Cc1nc2cc(NC(=O)CSc3nc4c(C)cccc4cc3C#N)ccc2s1 :: active
Cc1nonc1NC(=O)CSc1nc2ccccc2cc1C#N :: inactive
CCOc1ccc2nc(NC(=O)c3cc([N+](=O)[O-])ccc3N3CCOCC3)sc2c1 :: active

# lookup: test call for COc1ccccc1NC(=O)C1=C(C)Nc2nnnn2C1c1cccc(Br)c1 (stereo not drawn)
active

I would be grateful if you could indicate the recorded call for COc1cc(C2C(C(=O)Nc3ccccc3OC)=C(C)Nc3ncnn32)ccc1O (stereo not drawn) .
inactive

Short answer needed: outcome of this test for "O=C(c1ccc(NS(=O)(=O)c2ccc3[nH]c(=O)[nH]c3c2)cc1)N1CCCCC1" ?
inactive

Which outcome was assigned to "O=C(NCc1ccc2c(c1)OCO2)c1cc([N+](=O)[O-])ccc1N1CCOCC1" in this test?
inactive

What classification did "Cc1c(C(=O)NCCN2CCOCC2)sc2nc(-c3ccc(F)cc3)cn12" end up with in this test?
inactive

Identify the outcome logged in this assay for the molecule shown: "CCOc1cc2ccccc2cc1C(=O)Nc1ccccn1"
inactive

What classification did "O=C(CN(C(=O)CCC(=O)Nc1nccs1)c1ccc(F)cc1)NCc1ccc2c(c1)OCO2" end up with in this test?
inactive

Could you check what this test reported for "CS(=O)(=O)N(CC(=O)N1CCCC1)Cc1ccccc1" ?
inactive

I would be grateful if you could indicate the recorded call for "O=C(Cn1nnc(-c2ccccc2)n1)NCc1ccc2c(c1)OCO2" .
active

For "COc1cc(-c2nnn(CC(=O)NCc3ccccc3)n2)cc(OC)c1OC" , what call appears in the results of this test?
inactive

Test call, this molecule: Cc1ccc(-c2nc(CS(=O)CC(=O)N3CCN(c4ncccn4)CC3)c(C)o2)cc1 (stereo not drawn)
inactive

Could you kindly confirm the outcome this assay logged for "Cc1ccc(Cn2nnc3c(=O)n(CC(=O)N4CCCCC4)cnc32)cc1" ?
inactive

Hello, I am checking results. What call was entered for CC1COc2ccccc2N1C(=O)c1cccnc1Cl (stereo not drawn) ?
inactive

What did the test return for "O=c1[nH]snc1-c1c(Cl)cccc1Cl" ?
inactive

* * *

Target under test: Protein FosB (Mus musculus) (UniProt P13346)
Protocol: activators of delta FosB homodimer, primary screen, biochemical, fluorescence polarization, TAMRA-CDK5 oligo, single point (AID 493131);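 note: fluorescence polarization rise as delta FosB binds a TAMRA Cdk5 AP-1 oligo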
Details: purified delta FosB, at 25 µM, active compounds read high, percent of positive-control signal above neutral wells
The campaign covered roughly 340,000 compounds. About 3,300 (0.97%) were called active. This is one part of a sample in which actives are shown more often than they occur.
Record form. Attribute: activation. Fill in for each entry.

NC(=NC(=O)c1ccccc1)C1=C(O)CCC1=O :: -12.8% (inactive)
O=[N+]([O-])c1ccc(N2CCN(c3ccc(O)cc3)CC2)c(Cl)c1 :: -9.93% (inactive)
COCCOC(=O)C1=C(C)Nc2nc(C)nn2C1c1ccccc1 (stereo not given) :: -7.61% (inactive)
COC(=O)c1nc2n(n1)C(c1ccc([N+](=O)[O-])cc1)C(C(=O)Nc1ccc(Cl)cc1)=C(C)N2 (stereo not given) :: 34.5% (active)

Shifting focus to the compound that follows.
What value of measured activation is listed for COc1cc(C2C(C(=O)Nc3ccc(F)cc3)=C(C)Nc3nc(CCCO)nn32)cc(OC)c1OC (stereo not given) ?
-9.9% (inactive)
